# Assay Info: Test 3-1: metabolic stability test of human liver microsome
# Assay type: in vitro ADME
# Assay Setup: human liver microsome 0.1 mg/mL, test compound 0.1 μmol/L, 37° C., 30 minutes
Each entry below carries its recorded Metabolic stability of human liver microsome.
Property Label: Metabolic stability of human liver microsome

* O=C(NCCN1CCC(c2cccc(OC(F)(F)F)n2)CC1)C1CCOCC1 | <0.05 mL/min/mg protein
* O=C(NCCN1CCC(c2cccc(C(F)F)n2)CC1)C1CCOCC1 | <0.05 mL/min/mg protein
* Cc1cccc(C2CCN(CCNC(=O)C3CCCCO3)CC2)n1 (stereo not drawn) | <0.05 mL/min/mg protein
